tested on: sarcoma SJSA-1 tumor model; test: Efficacy in animal model of sarcoma SJSA-1, 30 mg/kg once a week for two weeks (Example 40); format: in vivo, BALB/c mice; settings: 30 mg/kg once a week for two weeks; Day 14
Where a SMILES comes first, the peptide text is derived from it. The star is where a group is joined. Belotecan = CC[C@@]1(O)C(=O)OCc2c1cc1n(c2=O)Cc2c-1nc1ccccc1c2CCN(C(C)C)*; X5 = CC[C@@]1(O)C(=O)OCc2c1cc1n(c2=O)Cc2c-1nc1ccccc1c2CCN(CC(C)C)*; X3 = CC[C@@]1(O)C(=O)OCc2c1cc1n(c2=O)Cc2c-1nc1ccccc1c2CCN(C1CC1)*; Propanoyl(3-maleimido) = O=C1C=CC(=O)N1CCC(=O)*; PEG6 = NCCOCCOCCOCCOCCOCCOCCC(=O)O
readout: Mouse weight (%) on Day 14
One number for each entry, in %.

[
  {
    "compound": "CC[C@@]1(O)C(=O)OCC2=C1C=C1c3nc4ccccc4c(CCN(C(=O)OCc4ccc(NC(=O)[C@H](CC(N)=O)NC(=O)[C@H](C)NC(=O)[C@H](C)NC(=O)CCOCCOCCOCCOCCOCCOCCNC(=O)CCN5C(=O)C=CC5=O)cc4)C(C)C)c3CN1C2",
    "observed-result": "−6.9"
  },
  {
    "compound": "CC[C@@]1(O)C(=O)OCc2c1cc1n(c2=O)Cc2c-1nc1ccccc1c2CCN(CC(C)C)C(=O)[C@H](CC(C)C)NC(=O)[C@H](CC(N)=O)NC(=O)[C@H](C)NC(=O)[C@H](C)NC(=O)CCOCCOCCOCCOCCOCCOCCNC(=O)CCN1C(=O)C=CC1=O [MI-6PEG-AANL-D5] ({Propanoyl(3-maleimido)-PEG6}-AANL-X5)",
    "observed-result": "−1.1"
  },
  {
    "compound": "CC[C@@]1(O)C(=O)OCc2c1cc1n(c2=O)Cc2c-1nc1ccccc1c2CCN(C(=O)CNC(=O)[C@H](CC(N)=O)NC(=O)[C@H](C)NC(=O)[C@H](C)NC(=O)CCOCCOCCOCCOCCOCCOCCNC(=O)CCN1C(=O)C=CC1=O)C1CC1 [MI-6PEG-AANG-D6] ({Propanoyl(3-maleimido)-PEG6}-AANG-X3)",
    "observed-result": "−0.6"
  },
  {
    "compound": "CC[C@@]1(O)C(=O)OCc2c1cc1n(c2=O)Cc2c-1nc1ccccc1c2CCN(C(=O)[C@H](CC(C)C)NC(=O)[C@H](CC(N)=O)NC(=O)[C@H](C)NC(=O)[C@H](C)NC(=O)CCOCCOCCOCCOCCOCCOCCNC(=O)CCN1C(=O)C=CC1=O)C1CC1 [MI-6PEG-AANL-D6] ({Propanoyl(3-maleimido)-PEG6}-AANL-X3)",
    "observed-result": "−2.5"
  }
]

Query: Fill blank: measured Mouse weight (%) on Day 14 of the compound CC[C@@]1(O)C(=O)OCc2c1cc1n(c2=O)Cc2c-1nc1ccccc1c2CCN(C(=O)[C@H](CC(C)C)NC(=O)[C@H](CC(N)=O)NC(=O)[C@H](C)NC(=O)[C@H](C)NC(=O)CCOCCOCCOCCOCCOCCOCCNC(=O)CCN1C(=O)C=CC1=O)C(C)C [MI-6PEG-AANL-Belotecan] ({Propanoyl(3-maleimido)-PEG6}-AANL-Belotecan) is ____.
Reply: −1.3

====

tested on: colo320 colorectal cancer tumor model; settings: 45 mg/kg once a week for four weeks; Table 3
Where a SMILES comes first, the peptide text is derived from it. The star is where a group is joined. NEt(2-(20S-CPT-7-yl)ethyl) = CCN(CCc1c2c(nc3ccccc13)-c1cc3c(c(=O)n1C2)COC(=O)[C@]3(O)CC)*; X8 = CC[C@@]1(O)C(=O)OCc2c1cc1n(c2=O)Cc2c-1nc1ccccc1c2CCN(C1CCCC1)*; X1 = CC[C@@]1(O)C(=O)OCc2c1cc1n(c2=O)Cc2c-1nc1ccccc1c2CCN(C1CCC1)*; X4 = CCCN(CCc1c2c(nc3ccccc13)-c1cc3c(c(=O)n1C2)COC(=O)[C@]3(O)CC)*; X3 = CC[C@@]1(O)C(=O)OCc2c1cc1n(c2=O)Cc2c-1nc1ccccc1c2CCN(C1CC1)*; X7 = CC[C@@]1(O)C(=O)OCc2c1cc1n(c2=O)Cc2c-1nc1ccccc1c2CCN(C)*; Propanoyl(3-maleimido) = O=C1C=CC(=O)N1CCC(=O)*; PEG6 = NCCOCCOCCOCCOCCOCCOCCC(=O)O
Exercise: for every item that follows, state its recorded Mouse weight (%).

Some solved entries appear below for comparison.
[
  {
    "compound": "CC[C@@]1(O)C(=O)OCc2c1cc1n(c2=O)Cc2c-1nc1ccccc1c2CCN(C(=O)CNC(=O)[C@H](Cc1ccccc1)NC(=O)CNC(=O)CNC(=O)CCOCCOCCOCCOCCOCCOCCNC(=O)CCN1C(=O)C=CC1=O)C1CCCC1 [MI-6PEG-GGFG-D8] ({Propanoyl(3-maleimido)-PEG6}-GGFG-X8)",
    "Mouse weight (%)": "+17%"
  },
  {
    "compound": "CCN(CCc1c2c(nc3ccccc13)-c1cc3c(c(=O)n1C2)COC(=O)[C@]3(O)CC)C(=O)CNC(=O)[C@H](CC(N)=O)NC(=O)[C@H](C)NC(=O)CNC(=O)CCOCCOCCOCCOCCOCCOCCNC(=O)CCN1C(=O)C=CC1=O [MI-6PEG-GANG-D2] ({Propanoyl(3-maleimido)-PEG6}-GANG-{NEt(2-(20S-CPT-7-yl)ethyl)})",
    "Mouse weight (%)": "+39%"
  },
  {
    "compound": "CC[C@@]1(O)C(=O)OCc2c1cc1n(c2=O)Cc2c-1nc1ccccc1c2CCN(C(=O)CNC(=O)[C@H](Cc1ccccc1)NC(=O)CNC(=O)CNC(=O)CCOCCOCCOCCOCCOCCOCCNC(=O)CCN1C(=O)C=CC1=O)C1CCC1 [MI-6PEG-GGFG-D7] ({Propanoyl(3-maleimido)-PEG6}-GGFG-X1)",
    "Mouse weight (%)": "+20%"
  },
  {
    "compound": "CC[C@@]1(O)C(=O)OCc2c1cc1n(c2=O)Cc2c-1nc1ccccc1c2CCN(C)C(=O)CNC(=O)[C@H](Cc1ccccc1)NC(=O)CNC(=O)CNC(=O)CCOCCOCCOCCOCCOCCOCCNC(=O)CCN1C(=O)C=CC1=O [MI-6PEG-GGFG-D1] ({Propanoyl(3-maleimido)-PEG6}-GGFG-X7)",
    "Mouse weight (%)": "+19%"
  },
  {
    "compound": "CC[C@@]1(O)C(=O)OCc2c1cc1n(c2=O)Cc2c-1nc1ccccc1c2CCN(C(=O)CNC(=O)[C@H](Cc1ccccc1)NC(=O)CNC(=O)CNC(=O)CCOCCOCCOCCOCCOCCOCCNC(=O)CCN1C(=O)C=CC1=O)C1CC1 [MI-6PEG-GGFG-D6] ({Propanoyl(3-maleimido)-PEG6}-GGFG-X3)",
    "Mouse weight (%)": "+19%"
  },
  {
    "compound": "CCCN(CCc1c2c(nc3ccccc13)-c1cc3c(c(=O)n1C2)COC(=O)[C@]3(O)CC)C(=O)CNC(=O)[C@H](CC(N)=O)NC(=O)[C@H](C)NC(=O)[C@H](C)NC(=O)CCOCCOCCOCCOCCOCCOCCNC(=O)CCN1C(=O)C=CC1=O [MI-6PEG-AANG-D3] ({Propanoyl(3-maleimido)-PEG6}-AANG-X4)",
    "Mouse weight (%)": "+20%"
  }
]

We now examine a further compound.
Query: Fill blank: measured Mouse weight (%) of the compound CC[C@@]1(O)C(=O)OCC2=C1C=C1c3nc4ccccc4c(CCN(C(=O)OCc4ccc(NC(=O)[C@H](CC(N)=O)NC(=O)[C@H](C)NC(=O)[C@H](C)NC(=O)CCOCCOCCOCCOCCOCCOCCNC(=O)CCN5C(=O)C=CC5=O)cc4)C(C)C)c3CN1C2 [MI-6PEG-AAN-PAB-Belotecan] is ____.
Reply: +6%

====

test: MTD determination in mice (Examples 27, 36, 44); type: in vivo; settings: female, mouse, in vivo; mice, monitored for 14 d; Table 9
Where a SMILES comes first, the peptide text is derived from it. The star is where a group is joined. NEt(2-(20S-CPT-7-yl)ethyl) = CCN(CCc1c2c(nc3ccccc13)-c1cc3c(c(=O)n1C2)COC(=O)[C@]3(O)CC)*; X3 = CC[C@@]1(O)C(=O)OCc2c1cc1n(c2=O)Cc2c-1nc1ccccc1c2CCN(C1CC1)*; X7 = CC[C@@]1(O)C(=O)OCc2c1cc1n(c2=O)Cc2c-1nc1ccccc1c2CCN(C)*; Propanoyl(3-maleimido) = O=C1C=CC(=O)N1CCC(=O)*; PEG6 = NCCOCCOCCOCCOCCOCCOCCC(=O)O
readout: MTD at 14 d (mg/kg)
Answers are plain numbers, in mg/kg.

Some solved entries appear below for comparison.
[
  {
    "compound": "CC[C@@]1(O)C(=O)OCc2c1cc1n(c2=O)Cc2c-1nc1ccccc1c2CCN(C)C(=O)[C@H](CC(C)C)NC(=O)[C@H](CC(N)=O)NC(=O)[C@H](C)NC(=O)[C@H](C)NC(=O)CCOCCOCCOCCOCCOCCOCCNC(=O)CCN1C(=O)C=CC1=O [MI-6PEG-AANL-D1] ({Propanoyl(3-maleimido)-PEG6}-AANL-X7)",
    "unit-descriptor": "mg/kg",
    "observed-result": 200
  },
  {
    "compound": "CCN(CCc1c2c(nc3ccccc13)-c1cc3c(c(=O)n1C2)COC(=O)[C@]3(O)CC)C(=O)[C@H](CC(C)C)NC(=O)[C@H](CC(N)=O)NC(=O)[C@H](C)NC(=O)[C@H](C)NC(=O)CCOCCOCCOCCOCCOCCOCCNC(=O)CCN1C(=O)C=CC1=O [MI-6PEG-AANL-D2] ({Propanoyl(3-maleimido)-PEG6}-AANL-{NEt(2-(20S-CPT-7-yl)ethyl)})",
    "unit-descriptor": "mg/kg",
    "observed-result": 200
  }
]

We now examine a further compound.
Query: Fill blank: measured MTD at 14 d of the compound CC[C@@]1(O)C(=O)OCc2c1cc1n(c2=O)Cc2c-1nc1ccccc1c2CCN(C(=O)[C@H](CC(C)C)NC(=O)[C@H](CC(N)=O)NC(=O)[C@H](C)NC(=O)[C@H](C)NC(=O)CCOCCOCCOCCOCCOCCOCCNC(=O)CCN1C(=O)C=CC1=O)C1CC1 [MI-6PEG-AANL-D6] ({Propanoyl(3-maleimido)-PEG6}-AANL-X3) is ____.
Reply: 120
